Target: CMY-37 (Citrobacter freundii)
Conditions: read-out: IC50 β-lactamase CMY-37; class (C); nitrocefin 200 μM, 30-min pre-incubation, enzyme 0.2 nM
Could you mark each record 1 if its IC50 falls strictly under 20 nM, and 0 if it equals or exceeds it?

[
  {
    "COMPOUND": "O=C(O)C(F)(F)F.O=C1N2CC(n3ccc(CNc4nccs4)n3)=CC(C2)N1OS(=O)(=O)[O-].[Na+] (centres unmarked)",
    "DISCRETE LABEL": 1
  },
  {
    "COMPOUND": "O=C1N2CC(n3ccnn3)=CC(C2)N1OS(=O)(=O)[O-].[Na+] (centres unmarked)",
    "DISCRETE LABEL": 0
  },
  {
    "COMPOUND": "NCCONC(=O)c1cnn(C2=CC3CN(C2)C(=O)N3OS(=O)(=O)[O-])c1.O=C(O)C(F)(F)F.[Na+] (centres unmarked)",
    "DISCRETE LABEL": 1
  },
  {
    "COMPOUND": "NC(=O)CNCc1cn(C2=CC3CN(C2)C(=O)N3OS(=O)(=O)O)nn1 (centres unmarked)",
    "DISCRETE LABEL": 0
  },
  {
    "COMPOUND": "O=C1N2CC(n3cc(S(=O)(=O)NCCO)cn3)=CC(C2)N1OS(=O)(=O)[O-].[Na+] (centres unmarked)",
    "DISCRETE LABEL": 0
  },
  {
    "COMPOUND": "NCCc1ccn(C2=CC3CN(C2)C(=O)N3OS(=O)(=O)O)n1 (centres unmarked)",
    "DISCRETE LABEL": 1
  },
  {
    "COMPOUND": "O=C([O-])Cc1cn(C2=CC3CN(C2)C(=O)N3OS(=O)(=O)[O-])nn1.[Na+].[Na+] (centres unmarked)",
    "DISCRETE LABEL": 0
  },
  {
    "COMPOUND": "NC(=O)c1cn(C2=CC3CN(C2)C(=O)N3OS(=O)(=O)[O-])nn1.[Na+] (centres unmarked)",
    "DISCRETE LABEL": 0
  },
  {
    "COMPOUND": "O=C1N2CC(n3ccc(-c4ncco4)n3)=CC(C2)N1OS(=O)(=O)[O-].[Na+] (centres unmarked)",
    "DISCRETE LABEL": 0
  },
  {
    "COMPOUND": "O=C1N2CC(n3cc(CNCCO)nn3)=CC(C2)N1OS(=O)(=O)O (centres unmarked)",
    "DISCRETE LABEL": 0
  },
  {
    "COMPOUND": "O=C([O-])CCc1cn(C2=CC3CN(C2)C(=O)N3OS(=O)(=O)[O-])nn1.[Na+].[Na+] (centres unmarked)",
    "DISCRETE LABEL": 1
  },
  {
    "COMPOUND": "O=C1N2CC(n3cccn3)=CC(C2)N1OC(F)(F)C(=O)[O-].[Li+] (centres unmarked)",
    "DISCRETE LABEL": 0
  },
  {
    "COMPOUND": "CC(=O)Nc1cnn(C2=CC3CN(C2)C(=O)N3OS(=O)(=O)[O-])c1.[Na+] (centres unmarked)",
    "DISCRETE LABEL": 0
  },
  {
    "COMPOUND": "O=C(NCCN1CCOCC1)c1ccn(C2=CC3CN(C2)C(=O)N3OS(=O)(=O)O)n1 (centres unmarked)",
    "DISCRETE LABEL": 0
  },
  {
    "COMPOUND": "NC(=O)c1cc(F)n(C2=CC3CN(C2)C(=O)N3OS(=O)(=O)[O-])n1.[Na+] (centres unmarked)",
    "DISCRETE LABEL": 0
  },
  {
    "COMPOUND": "N#Cc1ccn(C2=CC3CN(C2)C(=O)N3OS(=O)(=O)[O-])n1.[Na+] (centres unmarked)",
    "DISCRETE LABEL": 0
  },
  {
    "COMPOUND": "O=C(Nc1ncns1)c1ccn(C2=CC3CN(C2)C(=O)N3OS(=O)(=O)O)n1 (centres unmarked)",
    "DISCRETE LABEL": 1
  },
  {
    "COMPOUND": "CN(C)Cc1cn(C2=CC3CN(C2)C(=O)N3OS(=O)(=O)[O-])nn1.[Na+] (centres unmarked)",
    "DISCRETE LABEL": 0
  },
  {
    "COMPOUND": "C/C(=N/O)c1cnn(C2=CC3CN(C2)C(=O)N3OS(=O)(=O)[O-])c1.[Na+] (centres unmarked)",
    "DISCRETE LABEL": 1
  },
  {
    "COMPOUND": "NCc1cnn(C2=CC3CN(C2)C(=O)N3OS(=O)(=O)[O-])c1.O=C(O)C(F)(F)F.[Na+] (centres unmarked)",
    "DISCRETE LABEL": 0
  },
  {
    "COMPOUND": "NCCNC(=O)Cc1ccn(C2=CC3CN(C2)C(=O)N3OS(=O)(=O)[O-])n1.O=C(O)C(F)(F)F.[Na+] (centres unmarked)",
    "DISCRETE LABEL": 0
  },
  {
    "COMPOUND": "O=C(Nc1ccn(C2=CC3CN(C2)C(=O)N3OS(=O)(=O)O)n1)c1cncs1 (centres unmarked)",
    "DISCRETE LABEL": 1
  },
  {
    "COMPOUND": "O=C(NC1CCNCC1)c1ccn(C2=CC3CN(C2)C(=O)N3OS(=O)(=O)O)n1 (centres unmarked)",
    "DISCRETE LABEL": 0
  },
  {
    "COMPOUND": "NC(=O)c1nn(C2=CC3CN(C2)C(=O)N3OS(=O)(=O)[O-])cc1F.[Na+] (centres unmarked)",
    "DISCRETE LABEL": 0
  },
  {
    "COMPOUND": "O=C1N2CC(n3cc(N4CCOCC4)cn3)=CC(C2)N1OS(=O)(=O)[O-].[Na+] (centres unmarked)",
    "DISCRETE LABEL": 0
  },
  {
    "COMPOUND": "O=C(N[C@H]1CCNC1)c1ccn(C2=CC3CN(C2)C(=O)N3OS(=O)(=O)O)n1 (some centres unmarked)",
    "DISCRETE LABEL": 0
  },
  {
    "COMPOUND": "NCCONC(=O)c1ccn(C2=CC3CN(C2)C(=O)N3OS(=O)(=O)O)n1 (centres unmarked)",
    "DISCRETE LABEL": 1
  },
  {
    "COMPOUND": "Cc1cc(C(N)=O)nn1C1=CC2CN(C1)C(=O)N2OS(=O)(=O)[O-].[Na+] (centres unmarked)",
    "DISCRETE LABEL": 0
  },
  {
    "COMPOUND": "O=C1N2CC(n3cc(-c4nccs4)nn3)=CC(C2)N1OS(=O)(=O)[O-].[Na+] (centres unmarked)",
    "DISCRETE LABEL": 0
  },
  {
    "COMPOUND": "CC(=O)Nc1ccn(C2=CC3CN(C2)C(=O)N3OS(=O)(=O)O)n1.CCN(CC)CC (centres unmarked)",
    "DISCRETE LABEL": 1
  },
  {
    "COMPOUND": "NCCc1cnn(C2=CC3CN(C2)C(=O)N3OS(=O)(=O)O)c1 (centres unmarked)",
    "DISCRETE LABEL": 0
  },
  {
    "COMPOUND": "O=C(N[C@@H]1CCNC1)c1ccn(C2=CC3CN(C2)C(=O)N3OS(=O)(=O)O)n1 (some centres unmarked)",
    "DISCRETE LABEL": 0
  }
]

---

CTX-M-15 (Escherichia coli, UniProt Q9EXV5) measurements of pIC50, listed per entry.
pIC50: −log10 of the molar value.
MEASUREMENT TYPE: pIC50

[
  {
    "COMPOUND": "Nc1ncc(C(=O)Nc2ccn(C3=CC4CN(C3)C(=O)N4OS(=O)(=O)[O-])n2)s1.[Na+] (stereo not shown)",
    "MEASUREMENT TYPE": "pIC50",
    "NUMERIC READOUT": 9.21
  },
  {
    "COMPOUND": "O=C(Nc1ccn(C2=CC3CN(C2)C(=O)N3OS(=O)(=O)O)n1)c1cncs1 (stereo not shown)",
    "MEASUREMENT TYPE": "pIC50",
    "NUMERIC READOUT": 8.82
  },
  {
    "COMPOUND": "NCCONC(=O)c1ccn(C2=CC3CN(C2)C(=O)N3OS(=O)(=O)O)n1 (stereo not shown)",
    "MEASUREMENT TYPE": "pIC50",
    "NUMERIC READOUT": 9.15
  },
  {
    "COMPOUND": "NCCNC(=O)c1cnn(C2=CC3CN(C2)C(=O)N3OS(=O)(=O)O)c1 (stereo not shown)",
    "MEASUREMENT TYPE": "pIC50",
    "NUMERIC READOUT": 9.15
  },
  {
    "COMPOUND": "CC(=O)c1cnn(C2=CC3CN(C2)C(=O)N3OS(=O)(=O)[O-])c1.[Na+] (stereo not shown)",
    "MEASUREMENT TYPE": "pIC50",
    "NUMERIC READOUT": 9.04
  },
  {
    "COMPOUND": "[2H]c1nn(C2=CC3CN(C2)C(=O)N3OS(=O)(=O)[O-])c([2H])c1[2H].[Na+] (stereo not shown)",
    "MEASUREMENT TYPE": "pIC50",
    "NUMERIC READOUT": 9.06
  },
  {
    "COMPOUND": "O=C1N2CC(n3cc(CO)nn3)=CC(C2)N1OS(=O)(=O)O (stereo not shown)",
    "MEASUREMENT TYPE": "pIC50",
    "NUMERIC READOUT": 9.00
  },
  {
    "COMPOUND": "NC(=O)c1cnn(C2=CC3CN(C2)C(=O)N3OS(=O)(=O)[O-])c1.[Na+] (stereo not shown)",
    "MEASUREMENT TYPE": "pIC50",
    "NUMERIC READOUT": 8.57
  },
  {
    "COMPOUND": "O=C(NCCN1CCOCC1)c1ccn(C2=CC3CN(C2)C(=O)N3OS(=O)(=O)O)n1 (stereo not shown)",
    "MEASUREMENT TYPE": "pIC50",
    "NUMERIC READOUT": 9.24
  },
  {
    "COMPOUND": "N#Cc1cnn(C2=CC3CN(C2)C(=O)N3OS(=O)(=O)[O-])c1.[Na+] (stereo not shown)",
    "MEASUREMENT TYPE": "pIC50",
    "NUMERIC READOUT": 9.11
  }
]
